Biological target: AR-Receptor (Homo sapiens, UniProt P10275)
Sequence (P10275 1-920 Q868H): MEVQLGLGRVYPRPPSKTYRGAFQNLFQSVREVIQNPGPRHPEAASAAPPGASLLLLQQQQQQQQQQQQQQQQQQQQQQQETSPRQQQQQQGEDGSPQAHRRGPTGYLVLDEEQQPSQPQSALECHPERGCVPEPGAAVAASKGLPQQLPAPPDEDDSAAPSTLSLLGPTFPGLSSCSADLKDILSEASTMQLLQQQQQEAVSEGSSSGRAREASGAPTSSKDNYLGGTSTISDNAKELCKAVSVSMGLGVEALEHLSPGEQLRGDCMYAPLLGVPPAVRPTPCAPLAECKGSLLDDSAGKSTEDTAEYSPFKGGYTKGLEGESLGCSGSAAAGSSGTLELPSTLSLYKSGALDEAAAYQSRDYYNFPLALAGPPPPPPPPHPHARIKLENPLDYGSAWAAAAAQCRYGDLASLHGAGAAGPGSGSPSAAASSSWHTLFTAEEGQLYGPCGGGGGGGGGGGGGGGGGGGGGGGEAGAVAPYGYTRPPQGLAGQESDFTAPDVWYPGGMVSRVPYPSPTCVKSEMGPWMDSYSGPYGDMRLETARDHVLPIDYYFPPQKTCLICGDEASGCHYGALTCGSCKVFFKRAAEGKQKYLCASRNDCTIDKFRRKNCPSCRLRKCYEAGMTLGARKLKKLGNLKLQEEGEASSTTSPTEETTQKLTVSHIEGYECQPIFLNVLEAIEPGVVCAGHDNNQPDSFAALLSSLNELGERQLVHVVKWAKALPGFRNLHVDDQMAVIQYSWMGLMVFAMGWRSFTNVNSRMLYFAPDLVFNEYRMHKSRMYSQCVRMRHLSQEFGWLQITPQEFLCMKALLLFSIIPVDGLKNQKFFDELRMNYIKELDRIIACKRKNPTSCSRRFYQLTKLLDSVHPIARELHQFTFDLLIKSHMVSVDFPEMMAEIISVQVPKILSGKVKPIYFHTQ
Test: Functional Assay AR-Receptor (MDA-MB-453 cells, luciferase)
Format: cell-based
Conditions: antagonist effect in the presence of DHT 1 nM, 24 h, luciferase luminescence, read-out: AR antag KB
# maps each entry to its Kb
READOUT: Kb

1) COC(=O)C1=C(C)NC(N)=C(C(=O)OCC2CC2)C1c1csc2c(C#N)cc(F)cc12 (stereo not shown); 100 to 1000 nM
2) CC(=O)C1=C(C)NC(C2CC2)=C(C(=O)OCc2ccc(F)cc2)C1c1csc2ncccc12 (stereo not shown); < 100 nM
3) CC(=O)C1=C(C)NC(C2CC2)=C(C(=O)OCc2ccncc2)C1c1csc2ccc(Cl)cc12 (stereo not shown); 100 to 1000 nM
4) CC(=O)C1=C(C)NC(N)=C(C(=O)OCc2cccc(F)c2)C1c1csc2c(C#N)cccc12 (stereo not shown); 100 to 1000 nM
5) CC(=O)C1=C(C)NC(C)=C(C(=O)OCCc2ccccc2)C1c1csc2ccccc12 (stereo not shown); 100 to 1000 nM
6) COC(=O)C1=C(C=O)NC(C2CC2)=C(C(=O)OC)C1c1csc2c(C#N)cccc12 (stereo not shown); 100 to 1000 nM
7) CC(=O)C1=C(C)NC(C)=C(C(=O)OCc2cccnc2)C1c1csc2ncccc12 (stereo not shown); 100 to 1000 nM
8) CC(=O)C1=C(C)NC(C)=C(C(=O)OCc2ccc(C#N)cc2)C1c1csc2ncccc12 (stereo not shown); ≥ 1000 nM
9) CC(=O)C1=C(C)NC(C)=C(C(=O)OCc2ccncc2)C1c1csc2ccc(Cl)cc12 (stereo not shown); 100 to 1000 nM
10) CC(=O)C1=C(C)NC(C)=C(C(=O)OCc2ccccc2-c2ccncc2)C1c1csc2ncccc12 (stereo not shown); ≥ 1000 nM
11) CC(=O)C1=C(C)NC(C)=C(C(=O)OCc2cccnc2)C1c1csc2ccc(F)cc12 (stereo not shown); 100 to 1000 nM
12) CC(=O)C1=C(C)NC(C)=C(C(=O)OCC2CCOCC2)C1c1csc2ccccc12 (stereo not shown); 100 to 1000 nM
13) C#CCOC(=O)C1=C(C)NC(N)=C(C(=O)OCC2CC2)C1c1csc2c(C#N)cccc12 (stereo not shown); ≥ 1000 nM
